Provenance of the data: PubChem BioAssay AID248

System: L1210 leukemia ip in BDF1 mice, survival T/C
Assay: NCI In Vivo Anticancer Drug Screen. Data for tumor model L1210 Leukemia (intraperitoneal) in B6D2F1 (BDF1) mice
Conditions: endpoint: mean survival time; dose: 200.0 mg/kg/injection; schedule: Q04DX003 (ip); vehicle: saline with Tween-80
Inconclusive results and toxic doses are left out. Cut-off read from the data, not from the text of the source: active = T/C of 150% or more; inactive = T/C below 125%.
Your reply should match one of these outcome classes. true (1) (active), false (0) (inactive)

Ask | GET /call?item= Cc1ccc(S(=O)(=O)OC2C(C)C3C2S(=O)(=O)C3(C)C)cc1 (stereo not drawn) returns the recorded outcome of this test.
Reply | false (0)

Ask | Try this compound next: c1ccc([Si](c2ccccc2)(c2ccccc2)c2ccccc2)cc1
Reply | false (0)

Ask | Try this compound next: COC(=O)C(CCC(=O)C=[N+]=N)NC(=O)C(Cl)Cl (stereo not drawn)
Reply | true (1)

Ask | Try this compound next: COc1ccc(OC)c(NC(=O)CS)c1
Reply | false (0)

Ask | Try this compound next: Cc1cc2c(cc1O)C(C)(C)CCC2(C)C
Reply | false (0)

Ask | Try this compound next: O=C(Nc1ccc(Cl)cc1)Nc1ccccc1F
Reply | false (0)

Ask | Try this compound next: CCCCCCCC(=O)Nc1ccccc1CC
Reply | false (0)

Ask | Try this compound next: c1ccc(N2CCN(c3ccccc3)C2c2ccc3c(c2)CCC3)cc1
Reply | false (0)

Ask | Try this compound next: O=[N+]([O-])c1ccc(N2CCN(c3cccc(C(F)(F)F)c3)CC2)c([N+](=O)[O-])c1
Reply | false (0)

Ask | Try this compound next: CC1=NN(c2cccc(S(=O)(=O)O)c2)C(=O)C1
Reply | false (0)

Ask | Try this compound next: O=C(/C=C/c1ccccc1)N1CC2CCC(CC2)C1
Reply | false (0)

Ask | Try this compound next: O=C(NC(O)C(Cl)(Cl)Cl)c1ccccc1O (stereo not drawn)
Reply | false (0)

Ask | Try this compound next: O=C(Nc1cc(S(=O)(=O)F)ccc1Cl)Oc1ccc([N+](=O)[O-])cc1
Reply | false (0)

Ask | Try this compound next: N=C(OCCCO)C(=N)OCCCO
Reply | false (0)

Ask | Try this compound next: C=C1C(=O)O[C@@H]2C[C@@H](C)[C@@H]3CC(=O)OC[C@@]3(C)C[C@H]12
Reply | false (0)

Ask | Try this compound next: OCCOc1cccc(OCCO)c1
Reply | false (0)

Ask | Try this compound next: COc1ccc(C(=O)OC(=O)c2ccc(OC)cc2)cc1
Reply | false (0)

Ask | Try this compound next: CC12C=CC(CC1)C2O (stereo not drawn)
Reply | false (0)

Ask | Try this compound next: COc1cc2ccnc(C(OC(=O)c3ccccc3)c3ccc(OCc4ccccc4)cc3)c2cc1OC (stereo not drawn)
Reply | false (0)

Ask | Try this compound next: O=c1[nH]c2ccccc2c2ccccc12
Reply | false (0)

Ask | Try this compound next: O=Cc1cc2c(cc1[N+](=O)[O-])OCO2
Reply | false (0)

Ask | Try this compound next: O=C1CCC(=O)N1C1C=CC=CC=C1
Reply | false (0)

Ask | Try this compound next: CC1=CC(=O)N(NC(N)=O)C1=O
Reply | false (0)

Ask | Try this compound next: C=CCC1C(=O)CC(C)(C)CC1=O
Reply | false (0)

Ask | Try this compound next: CC(C)c1ccc(N=Nc2ccc(N(C)C)cc2)cc1
Reply | false (0)

Ask | Try this compound next: CCCCCCCCSCCC(=O)O
Reply | false (0)

Ask | Try this compound next: CN(C)C(=O)Nc1cccc(OC(=O)NC2CC2)c1
Reply | false (0)

Ask | Try this compound next: CCN(CC)CC(=O)Nc1cccc2c1C(=O)c1c(c(O)c3ccccc3c1O)C2=O
Reply | true (1)
